- Measurement target: T1, C-terminally 6x Histidine-tagged Beta-Catenin (aa 134-668, 59 KD) (UniProt P35222 134-668)
- T1 construct: range 134-668; Armadillo repeat region
- T1 sequence: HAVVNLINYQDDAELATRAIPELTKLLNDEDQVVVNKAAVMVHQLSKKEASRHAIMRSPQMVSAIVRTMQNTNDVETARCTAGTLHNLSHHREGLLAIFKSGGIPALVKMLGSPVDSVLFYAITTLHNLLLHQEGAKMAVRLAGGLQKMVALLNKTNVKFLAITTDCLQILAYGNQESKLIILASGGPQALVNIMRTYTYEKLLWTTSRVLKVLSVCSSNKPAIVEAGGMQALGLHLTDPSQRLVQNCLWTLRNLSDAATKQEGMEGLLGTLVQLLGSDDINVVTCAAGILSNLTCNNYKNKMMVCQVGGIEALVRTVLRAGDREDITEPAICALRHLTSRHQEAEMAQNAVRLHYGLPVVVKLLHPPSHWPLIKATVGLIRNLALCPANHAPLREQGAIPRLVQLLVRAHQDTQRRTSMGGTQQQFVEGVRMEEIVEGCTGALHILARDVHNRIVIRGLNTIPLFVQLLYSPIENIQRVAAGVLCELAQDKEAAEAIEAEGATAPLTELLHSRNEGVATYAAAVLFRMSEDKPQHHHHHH
- Assay text: competitive fluorescence polarization, FAM-labelled linear probe as competitor, His-tagged beta-catenin 134-668
Task for the reader: assign each of the following binders its reported pIC50.
Keep in mind that pIC50 stands for -log10 of concentration in molar terms.

IN: Please supply the value of reported pIC50 for the item LGANDELISFANEGAQEEKSSNNSSAARDLADVKSSLV (not fully specified; N-terminal acetyl; C-terminal amide; $ = (S)-alpha-(2'-pentenyl)alanine at positions 11 and 15 (first crosslink) and 27 and 31 (second crosslink), each pair joined by an all-carbon crosslinker with one double bond) [SP62]
OUT: 7.15

IN: Please supply the value of reported pIC50 for the item Ac-LGANDELISFKDEGEQEEKSSENSSAERDLADVKSSLV-NH2 (Linear, not crosslinked) [SP14]
OUT: 7.02

IN: Please supply the value of reported pIC50 for the item SP50 (not fully specified; N-terminal acetyl; C-terminal amide; PEG3 = NH-(PEG)3-COOH (16 atoms) linker between the two peptide parts; $ = (S)-alpha-(2'-pentenyl)alanine at positions 11 and 15 of the first part and at positions 2 and 6 of the second part, each pair joined by an all-carbon crosslinker with one double bond, The two peptide parts are joined by a non-peptide PEG3 spacer, not by a peptide bond) peptide: LGANDELISFADEGAQEEKSS AARDLANVKSSLV
OUT: 5.96
